assay: Water solubility of merocyanine (C); type: physicochemical; conditions: at 20° C.
Measurement name: solubility

## Input Given CCOCCOC(=O)/C(C#N)=C1\C=C(NCCCOC)CCC1 [Compound (C)] , state its recorded solubility.
## Output ~500 µg/mL

Where do these numbers come from? They come from patent US20250049674A1.
